Data origin: the supplement of paper PMC9112550

# System: Escherichia coli TOP10;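 note: peptides expressed intracellularly from a pBAD plasmid library in pooled LB shake-flask culture, induced with 0.3% L-arabinose, DNA abundance read by NGS, three biological replicates, DESeq2 with apeglm shrinkage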
# Assay notes: shrunken log2 fold change of peptide-encoding DNA abundance (4.5 h post-induction vs induction); higher = less antimicrobial activity (less host growth inhibition)
# Assay conditions: time post-induction: 4.5 h; library: site-saturation at positions 5, 18, 19, 20
# shrunken log2 fold change per record follows

| Residue sequence | shrunken log2 fold change |
| --- | --- |
| RRIRERPPRLPRPRPRPPVPPRP | 0.45 |
| RRIRKRPPRLPRPRPRPANSPRP | -0.0423 |
| RRIRWRPPRLPRPRPRPDLCPRP | 0.777 |
| RRIRRRPPRLPRPRPRPNCDPRP | 0.186 |
| RRIRNRPPRLPRPRPRPKKLPRP | -0.0729 |
| RRIRQRPPRLPRPRPRPGYDPRP | -0.0645 |
| RRIRVRPPRLPRPRPRPHEQPRP | -0.163 |
| RRIRRRPPRLPRPRPRPGTKPRP | 0.0056 |
| RRIRARPPRLPRPRPRPMFHPRP | -0.275 |
| RRIRVRPPRLPRPRPRPGPMPRP | 0.189 |
| RRIRRRPPRLPRPRPRPIKDPRP | -0.0902 |
| RRIRFRPPRLPRPRPRPVKGPRP | -0.178 |
| RRIRVRPPRLPRPRPRPVFWPRP | 0.378 |
| RRIRNRPPRLPRPRPRPGTLPRP | -0.0615 |
| RRIRDRPPRLPRPRPRPTQTPRP | 0.121 |
| RRIRSRPPRLPRPRPRPMNWPRP | -0.0283 |
| RRIRGRPPRLPRPRPRPPDCPRP | 1.28 |
| RRIRGRPPRLPRPRPRPNHTPRP | -0.144 |
| RRIRIRPPRLPRPRPRPDVKPRP | -0.147 |
| RRIRNRPPRLPRPRPRPFFEPRP | -0.0529 |
| RRIRGRPPRLPRPRPRPKWAPRP | 0.155 |
| RRIRPRPPRLPRPRPRPGIWPRP | 0.157 |
| RRIRARPPRLPRPRPRPFMQPRP | -0.0876 |
| RRIRQRPPRLPRPRPRPGTVPRP | -0.00591 |
| RRIRMRPPRLPRPRPRPQRVPRP | 1.27 |
| RRIRFRPPRLPRPRPRPIIHPRP | -0.795 |
| RRIRHRPPRLPRPRPRPWWLPRP | -0.0295 |
| RRIRGRPPRLPRPRPRPLRCPRP | 0.58 |
| RRIRQRPPRLPRPRPRPSPSPRP | -0.144 |
| RRIRLRPPRLPRPRPRPYIKPRP | -0.882 |
| RRIRGRPPRLPRPRPRPNGQPRP | 0.386 |
| RRIRQRPPRLPRPRPRPCIDPRP | -0.424 |
